Experiment: Dose-finding and tolerability in mice, drug in chow
Format: in vivo
Conditions: mouse, in vivo, oral; administered in chow; read-out: MTD, predicted dose in mouse chow
readout: MTD (mg/kg)
A number alone suffices; assume mg/kg.

I am curious: what MTD value has been reported for CCCCNc1ncc2c(-c3ccc(CN4CCN(C)CC4)cc3)cn([C@H]3CC[C@H](O)CC3)c2n1 [MRX6313] ? 120
